Source listed as PubChem BioAssay AID772.

test: HT29 colon tumor cell growth inhibition, primary screen, imaging, high content imaging, 72 h, CellTiter-Glo (AID 772); conditions: HCS imaging cell count, measured here: ATP CellTiter-Glo viability, at 10 µM, stronger effect = higher value
The campaign covered roughly 3,300 compounds. About 20 (0.6%) were called active. For the sample, actives were picked, then their nearest neighbours and some compounds at random.
A collection of molecules and their measured growth inhibition
resultType: growth inhibition

molecule | assayValue
COC(=O)C1=C(C)N=C2SC(C)C(=O)N2C1c1ccc(C(=O)OC)cc1 (stereo unspecified) | -32%
Cc1cc(C(=O)O)c(CSc2ncn[nH]2)o1 | -62.3%
CCO/C(C)=N/n1c2nc3ccccc3nc2c2c(=O)n(Cc3ccccc3Cl)c(C)nc21 | -31%
COc1ccc(CNc2oc(COc3ccc(Cl)cc3)nc2C#N)cc1 | 54.4%
Cc1ccccc1N1C(=O)CC(Sc2nnc(-c3ccccc3)o2)C1=O (stereo unspecified) | -47.7%
COn1c(SC2CCCCC2)nc2ccccc2c1=O | 29.2%

---

assay: HT29 colon tumor cell growth inhibition, primary screen, imaging, high content imaging, 72 h, CellTiter-Glo (AID 772); conditions: HCS imaging cell count, at 10 µM, stronger effect = higher value
In all, about 3,300 compounds went through this assay and about 20 (0.6%) were called active. What follows is part of a selection rich in actives, with near analogues and random picks from the rest.
Label rule, in plain words: growth inhibition of -20% and up is 1 (yes), under -20% is 0 (no).

compound | className
COC(=O)c1[nH]c(C)c(/C(O)=C2\C(=O)C(=O)N(CCN3CCOCC3)C2c2cccnc2)c1C (stereo not given) | 0 (no)
N#CC(C(=O)NC1CCCCC1)c1nc2ccccc2nc1N1CCN(c2ccccc2F)CC1 (stereo not given) | 0 (no)
Cc1ccc(-c2nnc(-c3cccc(Br)c3)o2)cc1 | 1 (yes)
Cc1ccc(N2C(=O)C3ON(c4ccccc4)C(c4ccncc4)C3C2=O)c(C)c1 (stereo not given) | 1 (yes)
O=C(O)C(Cc1c[nH]c2ccccc12)NS(=O)(=O)c1cccc2nsnc12 (stereo not given) | 1 (yes)
O=C(CN1C(=O)c2ccccc2S1(=O)=O)NCCSCc1ccco1 | 1 (yes)
Cc1nn2c(-c3ccc(Cl)cc3)nnc2s1 | 1 (yes)
CCOC(=O)C1CCN(C(C)=C2C(=O)c3ccccc3C2=O)CC1 | 1 (yes)
CCC(NC(=O)Nc1cc(OC)c(OC)c(OC)c1)(C(F)(F)F)C(F)(F)F | 1 (yes)

---

experiment: HT29 colon tumor cell growth inhibition, primary screen, imaging, high content imaging, 72 h, CellTiter-Glo (AID 772); settings: HCS imaging cell count, measured here: ATP CellTiter-Glo viability, at 10 µM, stronger effect = higher value
The whole screen tested about 3,300 compounds, of which about 20 (0.6%) were called active. The full list was thinned out, with actives kept by preference.
MET if growth inhibition is below -50%. NOT MET if not; exact matches included in NOT MET.

molecule | className
S=C(N=Nc1ccccc1)NNc1ccccc1 | NOT MET
COc1ccc2[nH]c(C)c(C(=O)CN3CCc4cc(OC)c(OC)cc4C3)c2c1 | NOT MET
COC(=O)c1ccccc1NC(=O)C1COc2ccccc2O1 (stereo not given) | NOT MET
CC(C)(C)C1=Nn2c(nnc2-c2ccccn2)SC1 | MET
